# Test system: Wolbachia pipientis
# MEASUREMENT NOTES: Anti-Wolbachia Cell-Based Screen
# Type: functional
# Parameters: scale not given: in the data most compounds retested in dose-response had high values
# TEST PARAMETERS: 5 µM
The campaign covered roughly 48,000 compounds. About 13,000 (27%) showed an effect of 50% or more. The list shows a part of the results.
MEASUREMENT TYPE: Percent Effect (%)
The reply should be a number in %, with the unit left off.

Solved cases (4 shown):
- COMPOUND: "Cc1nccnc1N1C[C@H](NC(=O)CNS(C)(=O)=O)[C@@H](C2CC2)C1"
  UNIT SPEC: "%"
  Percent Effect: -53.3
- COMPOUND: "COCCN1CCN(C(=O)C[C@@H]2C[C@@H](C(C)C)[C@H](CC#N)C=C2C)CC1"
  UNIT SPEC: "%"
  Percent Effect: 7.225
- COMPOUND: "CCC1CN(C(=O)c2ccc(=O)[nH]c2)CCC(=O)N1Cc1ccccc1 (stereo not given)"
  UNIT SPEC: "%"
  Percent Effect: -17.04
- COMPOUND: "O=C(c1ccc(F)c(Cl)c1)N1C[C@@H]2CC[C@H](C1)N(Cc1ccccc1)C2"
  UNIT SPEC: "%"
  Percent Effect: 2.522

Lookup result for O=c1cc(CN2C[C@H]3CC[C@@H]2CN(Cc2ccccc2)C3)[nH]c(=O)[nH]1 ; measured Percent Effect: 2.734
